Give measured viability, T/C for each item. Keep answers brief.
Test system: SW 1271 complex tumor spheroid viability
Assay: Anticancer human tumor SW 1271 cell line growth inhibition;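 note: spheroids exposed to agents for seven days before readout; percent of DMSO vehicle control luminescence so 100% = vehicle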
Conditions: second compound 30 pM; first compound 0.1 µM; hits give low values
Description: Multicellular complex tumor spheroid response to DNA repair inhibitors in combination with DNA-damaging drugs This study explores the anticancer activities of DNA-damaging drugs and inhibitors of DNA damage repair, both as single agents and in combinations. […] Twenty-six patient-derived or established malignant cell lines were evaluated representing sarcoma, melanoma, small cell lung cancer (SCLC), non-small cell lung cancer (NSCLC), as well as bladder, ovarian and pancreatic cancers. […]
Answers are plain numbers, in %.

COc1ccc([C@@H](O)c2cc(-c3ncnc4cc(N5CCOCC5)ccc34)c(F)cc2Cl)nn1 + COc1cc2c(cc1O)CCNC21CSC2c3c(OC(C)=O)c(C)c4c(c3C(COC1=O)N1C(O)C3Cc5cc(C)c(OC)c(O)c5C(C21)N3C)OCO4    86.9

Below is a list of compounds. For each, state its recorded viability, T/C.
1. COc1cc(C)[nH]c(=O)c1CN1CCc2c(Cl)cc(C(OC)C3COC3)c(Cl)c2C1=O (centres undefined) + COc1cc2c(cc1O)CCNC21CSC2c3c(OC(C)=O)c(C)c4c(c3C(COC1=O)N1C(O)C3Cc5cc(C)c(OC)c(O)c5C(C21)N3C)OCO4
2. Cc1cc(C)c(CNC(=O)c2cc(-c3ccc(CN4CCOCC4)cc3)cc3c2cnn3C2CCCC2)c(=O)[nH]1 + COc1cc2c(cc1O)CCNC21CSC2c3c(OC(C)=O)c(C)c4c(c3C(COC1=O)N1C(O)C3Cc5cc(C)c(OC)c(O)c5C(C21)N3C)OCO4
3. [2H]c1nc(C)nc([2H])c1-c1cc(NC[C@@H](C)c2cccc3c(C(=O)NC)ccnc23)ncn1 + COc1cc2c(cc1O)CCNC21CSC2c3c(OC(C)=O)c(C)c4c(c3C(COC1=O)N1C(O)C3Cc5cc(C)c(OC)c(O)c5C(C21)N3C)OCO4

1: 96; 2: 92.9; 3: 93.9

---

Give measured viability, T/C for each item. Keep answers brief.
Test system: SW 1271 complex tumor spheroid viability
Test: Anticancer human tumor SW 1271 cell line growth inhibition;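 note: spheroids exposed to agents for seven days before readout; percent of DMSO vehicle control luminescence so 100% = vehicle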
Conditions: second compound 0.000949 µM; first compound 3 µM; hits give low values
Answers are plain numbers, in %.

For orientation, consider the following solved cases.
O=C(c1cc(Cc2n[nH]c(=O)c3ccccc23)ccc1F)N1CCN(C(=O)C2CC2)CC1 + COc1cc2c(cc1O)CCNC21CSC2c3c(OC(C)=O)c(C)c4c(c3C(COC1=O)N1C(O)C3Cc5cc(C)c(OC)c(O)c5C(C21)N3C)OCO4    1.8
Cc1sc2c(c1C)C(c1ccc(Cl)cc1)=NC(CC(=O)Nc1ccc(O)cc1)c1nnc(C)n1-2 (centres undefined) + COc1cc2c(cc1O)CCNC21CSC2c3c(OC(C)=O)c(C)c4c(c3C(COC1=O)N1C(O)C3Cc5cc(C)c(OC)c(O)c5C(C21)N3C)OCO4    0.09
CNCc1ccc(-c2cc(-c3nc(-c4ccc(S(=O)(=O)C(C)C)cc4)cnc3N)on2)cc1 + COc1cc2c(cc1O)CCNC21CSC2c3c(OC(C)=O)c(C)c4c(c3C(COC1=O)N1C(O)C3Cc5cc(C)c(OC)c(O)c5C(C21)N3C)OCO4    0.11

Query molecule follows.
Return reported viability, T/C; argument: Cn1ncnc1[C@H]1c2n[nH]c(=O)c3cc(F)cc(c23)N[C@@H]1c1ccc(F)cc1 + COc1cc2c(cc1O)CCNC21CSC2c3c(OC(C)=O)c(C)c4c(c3C(COC1=O)N1C(O)C3Cc5cc(C)c(OC)c(O)c5C(C21)N3C)OCO4
0.31

// provenance: PubChem BioAssay AID1845215
